Tested On: ETA Receptor (Rattus norvegicus, UniProt P26684)
Construct: endogenous in cells; host or cells: MMQ rat pituitary cells (membranes)
Sequence (P26684 21-426): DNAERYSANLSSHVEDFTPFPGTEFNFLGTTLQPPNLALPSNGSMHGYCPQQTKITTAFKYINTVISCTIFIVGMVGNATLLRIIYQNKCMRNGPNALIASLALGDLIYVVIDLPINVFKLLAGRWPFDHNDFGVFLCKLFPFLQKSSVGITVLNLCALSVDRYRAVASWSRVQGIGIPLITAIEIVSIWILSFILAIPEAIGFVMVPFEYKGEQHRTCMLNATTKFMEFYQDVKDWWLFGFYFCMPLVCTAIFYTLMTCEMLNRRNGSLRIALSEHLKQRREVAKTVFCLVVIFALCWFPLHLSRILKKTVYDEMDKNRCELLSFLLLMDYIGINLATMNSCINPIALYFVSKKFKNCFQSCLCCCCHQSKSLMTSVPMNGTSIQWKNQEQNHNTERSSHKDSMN
Measurement Description: [125I]ET-1 binding to membranes from MMQ cells (ETA receptor binding assay, Table 4)
Condition Notes: test compound at 1 μM; 0.1 nM [125I]ET-1, MMQ cell membranes, 4 hours at 25° C.
Listing of recorded % Inhibition of ETA at 1 μM by entry.
Quantity Name: % Inhibition of ETA at 1 μM (%)

INSERT INTO assay_data (compound, result_number) VALUES
  ('CCCCN(CCCC)C(=O)CN1CC(c2ccc3c(c2)OCO3)C(C(=O)O)C1c1ccoc1 (stereo not shown) [Example 156]', 92.6),
  ('CCCCN(CCCC)C(=O)CN1CC(c2ccc3c(c2)OCO3)C(C(=O)O)C1c1ccc(C(C)(C)C)cc1 (stereo not shown) [Example 158]', 91.8),
  ('CCCCN(CCCC)C(=O)CN1CC(c2ccc3c(c2)CCO3)C(C(=O)O)C1c1ccc2c(c1)CCO2 (stereo not shown) [Example 162B]', 91.5),
  ('CCCN(C)C(=O)CN1CC(c2ccc(OC)cc2OC)C(C(=O)O)C1c1ccc(OC)cc1 (stereo not shown) [Example 147]', 73.0);
